- Tested on: A498 renal
- assay_notes: NCI tumour cell line growth inhibition, 48 h

- molecule: "O=C1C(Nc2ccc(Cl)cc2)=C(I)C(=O)c2ncccc21"
  GI50: "2.53 µM"
- molecule: "COC1CC(O[C@H]2CC[C@@]3(C)[C@H](CC[C@@H]4[C@@H]3CC[C@]3(C)[C@@H](C5=CC(=O)OC5)[C@@H](OC(C)=O)C[C@]43O)C2)OC(C)C1O (stereo partly drawn)"
  GI50: "< 0.01 µM"
- molecule: "COc1cccc(-c2c[nH]c3c(N/N=C/c4ccncc4)ncnc23)c1"
  GI50: "1.96 µM"
- molecule: "Cc1cc([N+](=O)[O-])c(NS(=O)(=O)c2cccc(C(=O)O)c2)cc1-c1cccnc1"
  GI50: "> 100 µM"
- molecule: "O=C1c2cc3c(cc2[C@@H]2[C@H]1c1ccc([N+](=O)[O-])cc1C(=O)N2CCCBr)OCO3"
  GI50: "< 0.01 µM"
- molecule: "COc1ccc(C/C(C)=C(/c2ccc(OCCN3CCCCC3)cc2)c2ccc(OC(=O)NCc3ccccc3)cc2)cc1"
  GI50: "0.398 µM"
- molecule: "CC(=O)[CH-]C(=O)c1ccccc1.CC(=O)[CH-]C(=O)c1ccccc1.CC[O-].CC[O-].[Hf+4]"
  GI50: "> 100 µM"
- molecule: "Cc1cc(NCCCN(C)C)c2ccc3c(ccc4c(NCCCN(C)C)cc(C)nc43)c2n1"
  GI50: "0.189 µM"

###

- Tested on: SK-OV-3 ovarian
- assay_notes: NCI tumour cell line growth inhibition, 48 h

- compound: "Cc1ccc2c(=O)cc(-c3ccc(Cl)s3)[nH]c2n1"
  TGI: "53.3 µM"
- compound: "CC(C)CNc1nc2ncnc(N)c2[nH]1"
  TGI: "> 100 µM"
- compound: "CC(=O)NCCC1CN(C(=O)/C=C/I)c2ccccc21 (configuration not stated)"
  TGI: "27.8 µM"
- compound: "CN(C)c1nc(N)nc(CS)n1"
  TGI: "> 100 µM"
- compound: "Cc1cn(C2CC3C(COCN3O)O2)c(=O)[nH]c1=O (configuration not stated)"
  TGI: "> 100 µM"
- compound: "CC1=C(c2cccc(O)c2)[C@H](c2ccc(OCCN3CC(CF)C3)cc2)Oc2ccc(O)cc21"
  TGI: "20.6 µM"
- compound: "Cc1cc2c(C(C)C)c(O)c(O)cc2c(O)c1-c1c(C)cc2c(C(C)C)c(O)c(O)cc2c1O"
  TGI: "73.5 µM"
- compound: "CN(C)CCN1C(=O)c2c(c3c4ccccc4n4c3c3c2c2ccccc2n3C2CC(O)C(O)C4(C)O2)C1=O (configuration not stated)"
  TGI: "9.9 µM"
- compound: "O=c1cnn(C2OC(CO)C(O)C2O)c(=S)[nH]1 (configuration not stated)"
  TGI: "> 100 µM"
- compound: "Cc1c(C(=O)Nc2ccccc2)sc2ncn(Cc3cccc(Cl)c3)c(=O)c12"
  TGI: "> 100 µM"
- compound: "O=C1C=CC(=O)C2=C1[C@@H](O)C1CC=CC3C(=O)O[C@@H]2C31 (some centres not stated)"
  TGI: "> 100 µM"
- compound: "OC(CCNC12CC3CC(CC(C3)C1)C2)c1ccccc1 (configuration not stated)"
  TGI: "> 100 µM"
- compound: "O=S(=O)(/C=C/c1ccc(F)cc1)Cc1ccc(CS(=O)(=O)/C=C/c2ccc(F)cc2)cc1"
  TGI: "> 100 µM"
- compound: "CC(CN(C)C)/C(=N\\Nc1ccccc1)c1ccccc1 (configuration not stated)"
  TGI: "84.1 µM"
- compound: "O=C1NC(=O)C(C(CC(=O)c2ccc([N+](=O)[O-])cc2)c2ccccc2)C(=O)N1 (configuration not stated)"
  TGI: "> 100 µM"
- compound: "COc1c(O)c2c3c(cc(C)cc3c1C(C)C)OC2"
  TGI: "> 100 µM"
- compound: "O=C1CCCCC1S(=O)(=O)c1ccccc1 (configuration not stated)"
  TGI: "> 100 µM"
- compound: "CN(C)C(=O)OC1C(=O)N(C)c2ccc(Cl)cc2C2(c3ccccc3)N1C2(Cl)Cl (configuration not stated)"
  TGI: "> 100 µM"
- compound: "N/N=C(/C(=O)Nc1cccc(Cl)c1)C(C(=O)c1ccc(O)cc1O)C1OC(=O)c2ccccc21 (configuration not stated)"
  TGI: "> 100 µM"
- compound: "NS(=O)(=O)c1ccc(/C=C/c2ccc(F)cc2)cc1"
  TGI: "57.6 µM"
- compound: "c1cncc(C2N3CCCCC3[C@@H]3c4[nH]c5ccccc5c4CCN23)c1 (some centres not stated)"
  TGI: "> 100 µM"
- compound: "Cc1ccc(/C(O)=C/c2nc3ccccc3sc2=O)c(C)c1"
  TGI: "> 100 µM"
